Source of measurements: the supplement of paper PMC9112550

# System: Escherichia coli TOP10;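 note: peptides expressed intracellularly from a pBAD plasmid library in pooled LB shake-flask culture, induced with 0.3% L-arabinose, DNA abundance read by NGS, three biological replicates, DESeq2 with apeglm shrinkage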
# Test Summary: shrunken log2 fold change of peptide-encoding DNA abundance (4.5 h post-induction vs induction); higher = less antimicrobial activity (less host growth inhibition)
# Measurement Context: time post-induction: 4.5 h; library: site-saturation at positions 5, 18, 19, 20
Param threshold (0.02) applies to shrunken log2 fold change; output met when value >= threshold, not met when value < threshold.

Record Sequence | Assigned Category
RRIRERPPRLPRPRPRPSAEPRP | not met

-- ask Is shrunken log2 fold change at least 0.02? Consider "RRIRNRPPRLPRPRPRPVNEPRP"
-- reply not met

-- ask Please check the record "RRIRPRPPRLPRPRPRPMKAPRP" and state if its shrunken log2 fold change is at or above 0.02.
-- reply met

-- ask Check the entry "RRIRPRPPRLPRPRPRPLSSPRP" : does shrunken log2 fold change equal or exceed 0.02?
-- reply not met

-- ask Does the reported shrunken log2 fold change for "RRIRWRPPRLPRPRPRPLPHPRP" fall at or above the 0.02 mark?
-- reply met

-- ask Identify whether the reported shrunken log2 fold change of the following sequence is 0.02 or greater: "RRIRKRPPRLPRPRPRPQATPRP"
-- reply met

-- ask Confirm if shrunken log2 fold change reported for the sequence "RRIRDRPPRLPRPRPRPQQPPRP" is 0.02 or above.
-- reply met
